Values from the supplement of paper PMC12317010

# Assay Protocol: collision cross section in nitrogen (drift tube, single-field); higher = larger gas-phase ion size;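 further: chemical standards at 10 µM analysed by drift tube IMS-QTOF MS in about 3.95 torr nitrogen, mean of duplicate injections differing ≤1%, mass error below 10 ppm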
# Stated Conditions: ion type: [M+H]; ion source: APCI; ion mode: Positive
Structures can show the parent of a compound that is named as a salt.
Quantity Measured: collision cross section in nitrogen (Å²)
API: value field is a number in Å²; no unit string.

# Compound, Unit Descriptor, Observed Result
rows = [
    ("Cc1ccc2[nH]c3cc4c(=O)c5cc(C)ccc5[nH]c4cc3c(=O)c2c1", "Å²", 183.4),
    ("O=C(C1CCCCC1)N1CC(=O)N2CCc3ccccc3C2C1 (centres undefined)", "Å²", 178.5),
    ("CCCCCC(C)OC(=O)COc1ccc(Cl)c2cccnc12 (centres undefined)", "Å²", 182.1),
]

Exam item: Return reported collision cross section in nitrogen; argument: Clc1ccccc1CN1CCc2sccc2C1 [Ticlopidine hydrochloride]
Marked response: 156.4

Exam item: // next record CCOC(=O)C1=NN(c2ccccc2)C(=O)C1 [Ethyl 5-oxo-1-phenyl-4,5-dihydro-1H-pyrazole-3-carboxylate]
Marked response: 154.1

Exam item: // next record CCOc1ccc2[nH]cc(C(=O)NCc3ccccc3)c(=O)c2n1
Marked response: 184.3

Exam item: // next record Cc1cc(C)c(C=C2C(=O)Nc3ccccc32)[nH]1
Marked response: 153.9

Exam item: // next record OCCc1ccccn1
Marked response: 120.7

Exam item: // next record CCCCOCCOCCOC(=O)CCCCC(=O)OCCOCCOCCCC [Bis[2-(2-butoxyethoxy)ethyl] adipate]
Marked response: 203.8

---

# Assay Protocol: collision cross section in nitrogen (drift tube, single-field); higher = larger gas-phase ion size
# Stated Conditions: ion type: [M+H]; ion source: APCI; ion mode: Positive
Structures can show the parent of a compound that is named as a salt.
Quantity Measured: collision cross section in nitrogen (Å²)
API: value field is a number in Å²; no unit string.

Some molecules with known collision cross section in nitrogen results, for comparison:
# Molecule, Observed Result
records = [
    ("c1ccc2c(c1)ccc1ncccc12", 134.7),
    ("Cc1cc(=O)nc(C(C)C)[nH]1", 133.9),
    ("NCc1cccnc1", 118.5),
    ("Cc1cc(F)ccc1-c1cc(N2CC[C@@H](O)[C@H]2CO)ncc1N(C)C(=O)C(C)(C)c1cc(C(F)(F)F)cc(C(F)(F)F)c1", 245.7),
    ("N=C(NCCCCCCNC(=N)NC(=N)Nc1ccc(Cl)cc1)NC(=N)Nc1ccc(Cl)cc1", 222.9),
    ("CCOC(=O)CCN(SN(C)C(=O)Oc1cccc2c1OC(C)(C)C2)C(C)C", 197.3),
    ("CC(C)c1cccc(C(C)C)c1N", 146.6),
    ("Nc1cc2c3c(c1)C(c1ccccc1)=N[C@@H](NC(=O)c1cccnc1)C(=O)N3CC2", 201.2),
]

The record that follows has no collision cross section in nitrogen shown yet.
Exam item: Return reported collision cross section in nitrogen; argument: Cc1ncc(CO)c(CO)c1O [Pyridoxine hydrochloride]
Marked response: 133.7

---

Listing: collision cross section in nitrogen of selected compounds
# Assay Protocol: collision cross section in nitrogen (drift tube, single-field); higher = larger gas-phase ion size
# Stated Conditions: ion type: [M+H]; ion source: APCI; ion mode: Positive
API: value field is a number in Å²; no unit string.

Some compounds with known collision cross section in nitrogen results, for comparison:
# Compound, Unit Descriptor, collision cross section in nitrogen
records = [
    ("COCCc1ccc(OCC(O)CNC(C)C)cc1 (centres undefined) [Metoprolol]", "Å²", 171.7),
    ("O=C(Nc1ccc(F)cc1F)c1cccnc1Oc1cccc(C(F)(F)F)c1 [Diflufenican]", "Å²", 184.7),
    ("CCNc1nc(NC(C)(C)C)nc(OC)n1 [Terbumeton]", "Å²", 154.8),
    ("CN1C(=CC=O)C(C)(C)c2ccccc21 [1,3-Dihydro-1,3,3-trimethyl-2H-indol-2-ylidene acetaldehyde]", "Å²", 144.6),
    ("c1coc(-c2nc3ccccc3[nH]2)c1 [Fuberidazole]", "Å²", 136.1),
    ("CC(C)(C)NC(=O)[C@H]1CC[C@H]2[C@@H]3CC[C@H]4NC(=O)C=C[C@]4(C)[C@H]3CC[C@]12C [Finasteride]", "Å²", 204.7),
    ("O=C1OC2(c3ccc(O)cc3Oc3cc(O)ccc32)c2ccccc21 [Fluorescein sodium]", "Å²", 174.3),
    ("CCOP(=O)(OCC)Oc1nc(Cl)c(Cl)cc1Cl [Chlorpyrifos oxon]", "Å²", 162.3),
    ("CNC(=O)Oc1ccc2c(c1)[C@]1(C)CCN(C)[C@@H]1N2C [Physostigmine]", "Å²", 169.6),
    ("N#Cc1ccc(C2CCCc3cncn32)cc1 (centres undefined)", "Å²", 157),
]

Exam item: Return reported collision cross section in nitrogen; argument: COc1c2occc2c(OC)c2c(=O)cc(C)oc12 [Khellin]
Marked response: 151.6

Exam item: // next record CC(C)(C)c1cc(CCC(=O)NCCCCCCNC(=O)CCc2cc(C(C)(C)C)c(O)c(C(C)(C)C)c2)cc(C(C)(C)C)c1O [Antioxidant 1098]
Marked response: 263.2

Exam item: // next record CC1CCc2nccnc21 (centres undefined) [6,7-Dihydro-5-methyl-5H-cyclopentapyrazine]
Marked response: 127.6

---

# Assay Protocol: collision cross section in nitrogen (drift tube, single-field); higher = larger gas-phase ion size
# Stated Conditions: ion type: [M+Na]; ion source: ESI; ion mode: Positive
Where a name gives a salt, the structure may show the parent alone.
Listing: collision cross section in nitrogen of selected compounds
API: value field is a number in Å²; no unit string.

# Compound, Quantity Measured, Observed Result
data = [
    ("CC1(C)OC[C@@H]2O[C@@]3(C(=O)O)OC(C)(C)O[C@H]3[C@@H]2O1", "collision cross section in nitrogen", 160.6),
    ("COc1cccc([C@H](O)C2CCN(CCc3ccc(F)cc3)CC2)c1OC", "collision cross section in nitrogen", 188),
    ("CC(C)CCCCCCCOC(=O)c1ccccc1C(=O)OCCCCCCCC(C)C [Diisodecyl phthalate]", "collision cross section in nitrogen", 226.5),
]

Exam item: Return reported collision cross section in nitrogen; argument: CNC(=O)Oc1ccc2c(c1)[C@]1(C)CCN(C)[C@@H]1N2C
Marked response: 169.6

Exam item: // next record CN(C)c1ccccc1
Marked response: 123.8

Exam item: // next record c1ccc(CNc2ncnc3c2ncn3C2CCCCO2)cc1 (stereo unspecified) [N-Benzyl-9-(tetrahydro-2H-pyran-2-yl)adenine]
Marked response: 189.3

Exam item: // next record C[C@H]1C[C@H]2[C@@H]3CCC4=CC(=O)C=C[C@]4(C)[C@@]3(F)[C@@H](O)C[C@]2(C)[C@@]1(O)C(=O)COP(=O)(O)O [Betamethasone 21-phosphate disodium]
Marked response: 211.7

Exam item: // next record CC(C)C1CCC(Cc2ccc(Cl)cc2)C1(O)Cn1cncn1 (stereo unspecified)
Marked response: 179.6

Exam item: // next record CCc1nn(C)c(C(=O)NCc2ccc(C(C)(C)C)cc2)c1Cl
Marked response: 193.2

Exam item: // next record CCCCCCC(CCCCCCCCCCC(=O)OCC(COC(C)=O)OC(C)=O)OC(C)=O (stereo unspecified)
Marked response: 225.2

Exam item: // next record COC(=O)C1=C(C)NC(C)=C(C(=O)OCCN(C)Cc2ccccc2)C1c1cccc([N+](=O)[O-])c1 (stereo unspecified) [Nicardipine hydrochloride]
Marked response: 211.2

Exam item: // next record CC(C)N1C(=O)N(c2ccccc2)CSC1=NC(C)(C)C
Marked response: 188

Exam item: // next record CCOC=C(C(=O)OCC)C(=O)OCC [Diethyl ethoxymethylenemalonate]
Marked response: 146.8

Exam item: // next record COP(=O)(OC)SCn1c(=O)oc2cc(Cl)cnc21
Marked response: 171.2

Exam item: // next record CCCCOCCOCCOCc1cc2c(cc1CCC)OCO2 [Piperonyl butoxide]
Marked response: 179.9

Exam item: // next record C[C@]12CC[C@H](O)C[C@H]1CC[C@@H]1[C@@H]2C[C@@H](O)[C@]2(C)[C@@H](C3=CC(=O)OC3)CC[C@]12O
Marked response: 220.7

---

Listing: collision cross section in nitrogen of selected molecules
# Assay Protocol: collision cross section in nitrogen (drift tube, single-field); higher = larger gas-phase ion size
# Stated Conditions: ion type: [M+H]; ion source: APCI; ion mode: Positive
Structures can show the parent of a compound that is named as a salt.
API: value field is a number in Å²; no unit string.

# Molecule, Observed Result
records = [
    ("CN(C)c1ccc(C(=N)c2ccc(N(C)C)cc2)cc1 [Auramine hydrochloride]", 168.3),
    ("CCCCCCCCN1CCCC1=O", 158.6),
    ("OCc1ncccc1O [3-Hydroxy-2-(hydroxymethyl)pyridine hydrochloride]", 121.7),
    ("CCNC(=O)C1CC(C)CCC1C(C)C (centres undefined) [N-Ethyl-2-(isopropyl)-5-methylcyclohexanecarboxamide]", 153.5),
    ("COC(=O)Nc1nc2cc(S(=O)c3ccccc3)ccc2[nH]1 (centres undefined)", 179),
    ("O=P1(N(CCCl)CCCl)NCCCO1 (centres undefined) [Cyclophosphamide monohydrate]", 148),
    ("CN(C)c1ccc(Cc2ccc(N(C)C)cc2)cc1", 175.3),
    ("CC(C)NCC(O)COc1cccc2ccccc12 (centres undefined) [Propranolol hydrochloride]", 162.5),
]

The record that follows has no collision cross section in nitrogen shown yet.
Exam item: Return reported collision cross section in nitrogen; argument: COc1cc(OC)nc(Sc2cccc(Cl)c2C(=O)O)n1 [Pyrithiobac sodium]
Marked response: 166.7
